Data origin, for the record: BindingDB's records for doi:10.1161/01.cir.102.23.2836

Field: pKi. Provide a value for each of the molecules that follow.
Molecular target: 5-hydroxytryptamine receptor 2C (Rattus norvegicus, UniProt P08909)
Sequence (P08909 whole entry): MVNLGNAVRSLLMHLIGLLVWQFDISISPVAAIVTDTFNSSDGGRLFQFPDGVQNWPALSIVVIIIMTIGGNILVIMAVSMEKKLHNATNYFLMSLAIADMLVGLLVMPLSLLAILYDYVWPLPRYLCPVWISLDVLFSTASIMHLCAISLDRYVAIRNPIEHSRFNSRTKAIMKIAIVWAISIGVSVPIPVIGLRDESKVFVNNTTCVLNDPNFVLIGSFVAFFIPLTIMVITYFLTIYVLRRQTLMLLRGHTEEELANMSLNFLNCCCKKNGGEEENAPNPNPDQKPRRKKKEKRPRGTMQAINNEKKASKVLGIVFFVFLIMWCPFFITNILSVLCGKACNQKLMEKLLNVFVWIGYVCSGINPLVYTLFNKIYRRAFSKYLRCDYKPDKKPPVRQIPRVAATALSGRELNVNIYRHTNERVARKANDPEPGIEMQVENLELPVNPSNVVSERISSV
The value called pKi is obtained by taking minus log10 of the concentration in mol/L.

The measured pKi associated with "Clc1cccc(N2CCNCC2)c1" reads 7.23

The measured pKi associated with "O=c1n(CCCN2CCN(c3cccc(Cl)c3)CC2)nc2ccccn12" reads 6.40

The measured pKi associated with "CN1C[C@H](C(=O)N[C@]2(C)O[C@@]3(O)[C@@H]4CCCN4C(=O)[C@H](Cc4ccccc4)N3C2=O)C=C2c3cccc4[nH]cc(c34)C[C@H]21" reads 7.92

The measured pKi associated with "NCC[C@H](Oc1ccc(C(F)(F)F)cc1)c1ccccc1" reads 6.54

The measured pKi associated with "CC[C@@H](CO)NC(=O)[C@@H]1C=C2c3cccc4c3c(cn4C)C[C@H]2N(C)C1" reads 8.74

* * *

Assay system 5-hydroxytryptamine receptor 2B (Homo sapiens, UniProt P41595); read-out recorded as pKi.
The value called pKi is obtained by taking minus log10 of the concentration in mol/L.

The measured pKi associated with CC[C@@H](CO)NC(=O)[C@@H]1C=C2c3cccc4[nH]cc(c34)C[C@H]2N(C)C1 [Methylergometrine] reads 9.31

The measured pKi associated with "CN1C[C@H](C(=O)N[C@]2(C)O[C@@]3(O)[C@@H]4CCCN4C(=O)[C@H](Cc4ccccc4)N3C2=O)C=C2c3cccc4[nH]cc(c34)C[C@H]21" reads 8.52

The measured pKi associated with NCC[C@H](Oc1ccc(C(F)(F)F)cc1)c1ccccc1 [NORFLUOXETINE] reads 5.30
